system-under-test: OsWRKY34 (Oryza sativa, UniProt Q0JBA9 1-250)
Sequence (Q0JBA9 entry or part of it): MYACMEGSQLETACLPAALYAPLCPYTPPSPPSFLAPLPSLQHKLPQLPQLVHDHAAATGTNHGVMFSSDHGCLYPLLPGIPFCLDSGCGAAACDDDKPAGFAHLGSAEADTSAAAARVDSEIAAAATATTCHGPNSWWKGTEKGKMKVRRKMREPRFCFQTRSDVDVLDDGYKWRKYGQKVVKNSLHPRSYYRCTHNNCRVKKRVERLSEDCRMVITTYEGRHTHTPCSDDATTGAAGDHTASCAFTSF
experimental-details: protein-binding microarray (RPBM); PBS, 2% BSA, 51.3 ng/ul salmon testes DNA, 50 uM zinc acetate, 200 nM TF, 25 C, 1 h; high values mean tight binding
applied-conditions: protein: recombinant; tags: N-terminal polyhistidine and DsRed monomer fusion (pET32a); label: CyDye5-dUTP incorporated in the synthesized complementary strand; 3' TTTTT single-stranded linker to array surface; dsDNA, one strand shown
Whole data set: some 68,000 sequences, median “fluorescence intensity (a.u.)” near 9,100, cut for the highest 2% near 16,000. The list comes from a sample in which the highest values are over-represented; it also holds close analogues and randomly drawn sequences.
recorded-endpoint: binding signal

Use the examples below as a reference point.
- residue-string: "TTTCATTTCACTCGCTGGCATTTCATCTCCTTGACCTATCCGGAGTCACCTAGTGCAG"
  binding signal: "9400 fluorescence intensity (a.u.)"
- residue-string: "GGGTTGGGTGGGTGCTGTAATATGGGGAGATACTGACTACCGGAGTCACCTAGTGCAG"
  binding signal: "19200 fluorescence intensity (a.u.)"
- residue-string: "GCTGTACCAGTACTGACCGGGGTGGGGTGGCGGGAGCGGACGGAGTCACCTAGTGCAG"
  binding signal: "14600 fluorescence intensity (a.u.)"
- residue-string: "ATTGTTTTTATAGGGGAGGGGAGGCGGGATCGAGCCCGGGCGGAGTCACCTAGTGCAG"
  binding signal: "15100 fluorescence intensity (a.u.)"
- residue-string: "GTATTATGGGTGGAGGCGGGCGGCTGAGCTGTTCCTGGGCCGGAGTCACCTAGTGCAG"
  binding signal: "8880 fluorescence intensity (a.u.)"

Fill in binding signal for each of the 4 sequences listed.
1. TCACCGGGCGGTCACCGGAGGCGGAGGCGGAGGGAGGGGCCGGAGTCACCTAGTGCAG
2. GGGGCGTCCCGGGAGGGGAGGGAGATGGGGAGGGAGCGGACGGAGTCACCTAGTGCAG
3. GAGGCTGGGCTGGGCGGGCGTATCGTTCCTGCTCCCGGAGCGGAGTCACCTAGTGCAG
4. CCTTTCCTAAGTCTCTGTTTTAACATCTCTATTGGGGCATCGGAGTCACCTAGTGCAG

[A]
1: 10200 fluorescence intensity (a.u.); 2: 16800 fluorescence intensity (a.u.); 3: 25400 fluorescence intensity (a.u.); 4: 8940 fluorescence intensity (a.u.)

* * *

system-under-test: OsWRKY34 (Oryza sativa, UniProt Q0JBA9 1-250)
experimental-details: protein-binding microarray (RPBM); PBS, 2% BSA, 51.3 ng/ul salmon testes DNA, 50 uM zinc acetate, 200 nM TF, 25 C, 1 h; high values mean tight binding
applied-conditions: protein: recombinant; tags: N-terminal polyhistidine and DsRed monomer fusion (pET32a); label: CyDye5-dUTP incorporated in the synthesized complementary strand; 3' TTTTT single-stranded linker to array surface; dsDNA, one strand shown
Whole data set: some 68,000 sequences, median “fluorescence intensity (a.u.)” near 9,100, cut for the highest 2% near 16,000. What follows is part of a selection rich in the highest values, with near analogues and random picks from the rest.
Give measured binding signal for each item. Keep answers brief.

Use the examples below as a reference point.
- residue-string: "ATCTTTGACGTCGTTGACTTTTAAAAAAATGTTTGACCGTCGGAGTCACCTAGTGCAG"
  binding signal: "22300 fluorescence intensity (a.u.)"
- residue-string: "TAGCAACTCCGTTCTTTTTCTTCTTTTCTCTCACTCACTCCGGAGTCACCTAGTGCAG"
  binding signal: "8360 fluorescence intensity (a.u.)"
- residue-string: "GTATTTTCGATTGTTTACACTATAATTAGACTGTTTTATACGGAGTCACCTAGTGCAG"
  binding signal: "8600 fluorescence intensity (a.u.)"
- residue-string: "CGCGCCCACCAGTCCACTCACGCGGTCACTCTCCTCCAGTCGGAGTCACCTAGTGCAG"
  binding signal: "8140 fluorescence intensity (a.u.)"
- residue-string: "CGTCTCTAAATACTTGACGCCGTTGACTTTTTTAAATATGCGGAGTCACCTAGTGCAG"
  binding signal: "26900 fluorescence intensity (a.u.)"

Fill in binding signal for each of the 8 sequences listed.
1. GTGTGGGTGGCAGGGTGTGTTGAGGAGGTGCCCGCGTTGCCGGAGTCACCTAGTGCAG
2. CTGCTCTTTCTTCTCTCTGCATTCCATTTCATTACTGCCTCGGAGTCACCTAGTGCAG
3. TTTCTTCCATACTGAAATGTGTATCTTAGCTACTGAAGCTCGGAGTCACCTAGTGCAG
4. ATATTTGACGACGTTGATTTTTTTTAAATATGTTTGACCGCGGAGTCACCTAGTGCAG
5. CCACTCACCACGCGCGCTGCCCGCTTGCCTCCTCTGCCCACGGAGTCACCTAGTGCAG
6. ACTCCCTCCGTTTCAAAATGTTTGACATCATTGACTTTTTCGGAGTCACCTAGTGCAG
7. CCTCATTAGCTAGCTTTTTAGGGTGGGGAAGGCCCTTTACCGGAGTCACCTAGTGCAG
8. TCCGTTTCGGAATGTTTGACGCCGTTGACTTTTTATTACACGGAGTCACCTAGTGCAG

[A]
10300 fluorescence intensity (a.u.)
11000 fluorescence intensity (a.u.)
8440 fluorescence intensity (a.u.)
9090 fluorescence intensity (a.u.)
10200 fluorescence intensity (a.u.)
11100 fluorescence intensity (a.u.)
12700 fluorescence intensity (a.u.)
25400 fluorescence intensity (a.u.)
